System: HOP-92 NSCLC
test_name: NCI-60 one-dose screen, 48 h
experimental_conditions: 10 µM unless noted
This is part of a sample that, as a whole, favours compounds with a hit. Of some 83,000 tested, about 20% had one in any assay. Active and inactive are the calls of the source. How the source made its calls: active means growth percent below 10; inactive means the rest.
Pick one and only one: active, inactive

Take a look at these entries with their results.
INSERT INTO measurements (compound, label_value) VALUES
  ('C=C1C(=O)O[C@H]2[C@H]1CC/C(COC(=O)/C=C\C(=O)NCc1ccc(Cn3c(=O)sn(CCCC)c3=O)cc1)=C\CC[C@@]1(C)O[C@@H]21', 'active'),
  ('CC1=NN(c2cccc(Cl)c2)C(=O)/C1=C\c1cn(CC(O)CN2CCCCC2)c2ccccc12 (stereo not given)', 'inactive'),
  ('COc1cc(NC(=O)c2cccc(-c3cc(=O)c4c(OC)c(OC)c(OC)cc4o3)c2)cc(OC)c1OC', 'inactive'),
  ('CCOc1ccc(-c2nc3ccc(-c4nc5ccc(N6CCN(C)CC6)cc5[nH]4)cc3[nH]2)cc1OCC', 'inactive'),
  ('O=c1oc2ccc(Cl)cc2cc1-c1cs/c(=N/N=C\c2ccc(Cl)cc2)n1/N=C/c1ccc(Cl)cc1', 'inactive');

INPUT: Field: outcome | Entry: NC(N)=N/N=C/CO
OUTPUT: inactive

INPUT: Hi, do you know how C[C@@H]1CC[C@@H]2[C@@H]1[C@H](OC(=O)c1ccc3ccccc3c1)[C@]1(C3CCCCC3)C[C@@H](OC(=O)CO)[C@@]2(C)O1 came out in this test?
OUTPUT: inactive

INPUT: Entry CC1=CC(=O)C(C(C)C)=CC1=Nc1cc(Br)c(O)c(Br)c1 : call = ?
OUTPUT: inactive
